# Test system: HARA (Squamous Cell Lung Carcinoma)
# PROCEDURE SUMMARY: Bliss excess, mean over the matrix (fraction); higher = more synergy
Given measured Bliss excess, output Condition met if it is greater than or equal to 0.02 and Condition not met if not.

# input Confirm if Bliss excess reported for the compound CC(=O)c1c(C)c2cnc(Nc3ccc(N4CCNCC4)cn3)nc2n(C2CCCC2)c1=O [Palbociclib] + Cn1cnc2c(F)c(Nc3ccc(Br)cc3Cl)c(C(=O)NOCCO)cc21 [Selumetinib] (first compound max 10 µM, 7x7, partner max 10 µM) is 0.02 or above.
# output Condition met

# input Tell me whether Bliss excess is at least 0.02 here: COc1nnc2ccc(N3CCC(c4ccc(OCCN5CCN(C)C(=O)[C@H]5C)cc4)CC3)nn12 [AZD5153] + Cc1c2c(nn1C)CSCc1cc(n(C)n1)CSc1cc(c3ccccc3c1)OCCCc1c(C(=O)O)n(C)c3c-2c(Cl)ccc13 [AZD5991] (first compound max 1 µM, 7x7, partner max 1 µM)
# output Condition not met

# input Quick check: does CN(CCO)CC[C@H](CSc1ccccc1)Nc1ccc(S(=O)(=O)NC(=O)c2ccc(N3CCC([C@@H](O)c4ccccc4-c4ccc(Cl)cc4)CC3)cc2)cc1S(=O)(=O)C(F)(F)F [AZD4320] + Cn1cnc2c(F)c(Nc3ccc(Br)cc3Cl)c(C(=O)NOCCO)cc21 [Selumetinib] (first compound max 1 µM, 7x7, partner max 3 µM) have Bliss excess greater than or equal to 0.02?
# output Condition met

# input Decide: is the reported value of Bliss excess for COc1cccc(OCCCN)c1-c1cc(Nc2cnc(C#N)cn2)n[nH]1 [Prexasertib] + CCc1c2c(nc3ccc(O)cc13)-c1cc3c(c(=O)n1C2)COC(=O)[C@]3(O)CC [SN-38] (first compound max 1 µM, 7x7, partner max 0.3 µM) equal to or greater than 0.02?
# output Condition met

# input Is reported Bliss excess greater than or equal to 0.02 here: NC1(C(=O)N[C@@H](CCO)c2ccc(Cl)cc2)CCN(c2ncnc3[nH]ccc23)CC1 [Capivasertib] + C[C@@H]1COCCN1C2=NC(=NC(=C2)C3(CC3)[S@](=N)(=O)C)C4=C5C=CNC5=NC=C4 [AZD6738] (first compound max 10 µM, 7x7, partner max 10 µM)
# output Condition not met

# input Answer whether Bliss excess of CC1(C)CCC(CN2CCN(c3ccc(C(=O)NS(=O)(=O)c4ccc(NCC5CCOCC5)c([N+](=O)[O-])c4)c(Oc4cnc5[nH]ccc5c4)c3)CC2)=C(c2ccc(Cl)cc2)C1 [Venetoclax] + COc1cc(Nc2ncc3c(n2)-c2ccc(Cl)cc2C(c2c(F)cccc2OC)=NC3)ccc1C(=O)O [Alisertib] (first compound max 1 µM, 7x7, partner max 10 µM) is greater than or equal to 0.02.
# output Condition not met

# input hey, is Bliss excess for this one >= 0.02? COc1cc2ncnc(Nc3ccc(F)c(Cl)c3)c2cc1OCCCN1CCOCC1 [Gefitinib] + CC(C)n1c(=O)n(C)c2cnc3cc(F)c(-c4ccc(OCCCN5CCCCC5)nc4)cc3c21 [AZD1390] (first compound max 10 µM, 7x7, partner max 0.3 µM)
# output Condition not met

====

# Test system: 639-V (Bladder Carcinoma)
# PROCEDURE SUMMARY: combination Emax (second highest fraction inhibited in the dose matrix, 72 h); higher = more inhibition; extreme values may be limits of the assay
ENDPOINT LABEL: combination Emax
Hey, just send me the number, nothing else.

Per the record, Cc1c2c(nn1C)CSCc1cc(n(C)n1)CSc1cc(c3ccccc3c1)OCCCc1c(C(=O)O)n(C)c3c-2c(Cl)ccc13 [AZD5991] + C=CCn1c(=O)c2cnc(Nc3ccc(N4CCN(C)CC4)cc3)nc2n1-c1cccc(C(C)(C)O)n1 [AZD1775] (first compound max 1 µM, partner max 1 µM) has combination Emax of 0.448

Input CN(CCO)CC[C@H](CSc1ccccc1)Nc1ccc(S(=O)(=O)NC(=O)c2ccc(N3CCC([C@@H](O)c4ccccc4-c4ccc(Cl)cc4)CC3)cc2)cc1S(=O)(=O)C(F)(F)F [AZD4320] + C[C@@H](Nc1cc(F)cc(F)c1)c1cc(C(=O)N(C)C)cc2c(=O)cc(N3CCOCC3)oc12 [AZD8186] (first compound max 1 µM, 7x7, partner max 3 µM) . Output combination Emax: 1

combination Emax recorded for this molecule, COc1cccc(OCCCN)c1-c1cc(Nc2cnc(C#N)cn2)n[nH]1 [Prexasertib] + Cc1cc2ncnn2cc1Nc1ncc2c(n1)n(C1CCOCC1)c(=O)n2C [AZD7648] (first compound max 1 µM, 7x7, partner max 10 µM) , is 0.362

molecule Cc1cc2ncnn2cc1Nc1ncc2c(n1)n(C1CCOCC1)c(=O)n2C [AZD7648] + CN(C)CCCOc1ccc(-c2ccc3ncc4c(c3c2)n(C2CCOCC2)c(=O)n4C)cn1 [AZD0156] (first compound max 10 µM, 7x7, partner max 1 µM) , combination Emax observed: 0.239

====

# Tested on: LoVo (Colorectal Carcinoma)
# PROCEDURE SUMMARY: combination Emax (second highest fraction inhibited in the dose matrix, 72 h); higher = more inhibition; extreme values may be limits of the assay
Response key: satisfied means combination Emax >= 0.5; not satisfied means combination Emax < 0.5.

# input Form field: combination Emax at least 0.5? Entry: N#Cc1cnc(Nc2cc(NC[C@H]3CNCCO3)c(C(F)(F)F)cn2)cn1 [SRA737] + O=c1[nH]cc(F)c(=O)[nH]1 [5-Fluorouracil] (first compound max 10 µM, 7x7, partner max 20 µM)
# output satisfied

# input // inclusive: combination Emax at least 0.5? input: Cc1nc(Nc2ncc(C(=O)Nc3c(C)cccc3Cl)s2)cc(N2CCN(CCO)CC2)n1 [Dasatinib] + CC(=O)Nc1cccc(-n2c(=O)n(C3CC3)c(=O)c3c(Nc4ccc(I)cc4F)n(C)c(=O)c(C)c32)c1 [Trametinib] (first compound max 2 µM, 7x7, partner max 1 µM)
# output satisfied

# input Can CN(CCO)CC[C@H](CSc1ccccc1)Nc1ccc(S(=O)(=O)NC(=O)c2ccc(N3CCC([C@@H](O)c4ccccc4-c4ccc(Cl)cc4)CC3)cc2)cc1S(=O)(=O)C(F)(F)F [AZD4320] + Cc1cc2ncnn2cc1Nc1ncc2c(n1)n(C1CCOCC1)c(=O)n2C [AZD7648] (first compound max 1 µM, 7x7, partner max 10 µM) be said to have combination Emax at or above 0.5?
# output satisfied

# input Could you tell me if the measured combination Emax of CC1(C)CCC(CN2CCN(c3ccc(C(=O)NS(=O)(=O)c4ccc(NCC5CCOCC5)c([N+](=O)[O-])c4)c(Oc4cnc5[nH]ccc5c4)c3)CC2)=C(c2ccc(Cl)cc2)C1 [Venetoclax] + C1CN(CCC1(C(=O)N[C@@H](CCO)C2=CC=C(C=C2)Cl)N)C3=NC=NC4=C3C=CN4 [Capivasertib] (first compound max 1 µM, 7x7, partner max 3 µM) reaches 0.5 or more?
# output not satisfied

# input Given CC1(C)CCC(CN2CCN(c3ccc(C(=O)NS(=O)(=O)c4ccc(NCC5CCOCC5)c([N+](=O)[O-])c4)c(Oc4cnc5[nH]ccc5c4)c3)CC2)=C(c2ccc(Cl)cc2)C1 [Venetoclax] + CN(C)CCCOc1ccc(-c2ccc3ncc4c(c3c2)n(C2CCOCC2)c(=O)n4C)cn1 [AZD0156] (first compound max 1 µM, 7x7, partner max 1 µM) , state whether its combination Emax is at least 0.5.
# output not satisfied

# input Decide: combination Emax of Cc1c2c(nn1C)CSCc1cc(n(C)n1)CSc1cc(c3ccccc3c1)OCCCc1c(C(=O)O)n(C)c3c-2c(Cl)ccc13 [AZD5991] + CC1(C)CCC(CN2CCN(c3ccc(C(=O)NS(=O)(=O)c4ccc(NCC5CCOCC5)c([N+](=O)[O-])c4)c(Oc4cnc5[nH]ccc5c4)c3)CC2)=C(c2ccc(Cl)cc2)C1 [Venetoclax] (first compound max 1 µM, 7x7, partner max 1 µM) >= 0.5?
# output not satisfied

====

# System: OC-314 (Ovarian Carcinoma)
# PROCEDURE SUMMARY: Bliss excess, mean over the matrix (fraction); higher = more synergy
ENDPOINT LABEL: Bliss excess
Could you keep your reply to the number by itself?

Bliss excess for CN(C)CCCOc1ccc(-c2ccc3ncc4c(c3c2)n(C2CCOCC2)c(=O)n4C)cn1 [AZD0156] + CCN(CCO)CCCOc1ccc2c(Nc3cc(CC(=O)Nc4cccc(F)c4)[nH]n3)ncnc2c1 [AZD2811] (first compound max 1 µM, 7x7, partner max 1 µM) is 0.0078

Cc1cc2ncnn2cc1Nc1ncc2c(n1)n(C1CCOCC1)c(=O)n2C [AZD7648] + C=CCn1c(=O)c2cnc(Nc3ccc(N4CCN(C)CC4)cc3)nc2n1-c1cccc(C(C)(C)O)n1 [AZD1775] (first compound max 10 µM, partner max 1 µM) yielded Bliss excess of 0.0579

Sample CC1(C)CCC(CN2CCN(c3ccc(C(=O)NS(=O)(=O)c4ccc(NCC5CCOCC5)c([N+](=O)[O-])c4)c(Oc4cnc5[nH]ccc5c4)c3)CC2)=C(c2ccc(Cl)cc2)C1 [Venetoclax] + C[C@@H]1COCCN1C2=NC(=NC(=C2)C3(CC3)[S@](=N)(=O)C)C4=C5C=CNC5=NC=C4 [AZD6738] (first compound max 1 µM, 7x7, partner max 10 µM) ; Bliss excess observed: -0.003

Reported Bliss excess of CC1(C)CCC(CN2CCN(c3ccc(C(=O)NS(=O)(=O)c4ccc(NCC5CCOCC5)c([N+](=O)[O-])c4)c(Oc4cnc5[nH]ccc5c4)c3)CC2)=C(c2ccc(Cl)cc2)C1 [Venetoclax] + Cc1cc2ncnn2cc1Nc1ncc2c(n1)n(C1CCOCC1)c(=O)n2C [AZD7648] (first compound max 1 µM, 7x7, partner max 10 µM) : -0.0115
